Ref: patent US6436960B1

Entries and their measured pIC50 follow.
- Subject of test: Ras farnesyl transferase (Homo sapiens, UniProt P49354+P49356)
- Construct: made in house
- Test description: in vitro inhibitory activity for Ras farnesyl transferase, H-Ras substrate
- Assay type: biochemical
Please treat pIC50 as minus the base-10 logarithm of the molar concentration.

Lookup: Recorded pIC50 of CC(=O)N1CCC(Cn2cncc2Cn2ccc(C(=O)c3cccc4ccccc34)c2)CC1 , please.
Found: 6.46

Lookup: Recorded pIC50 of O=C(c1ccn(Cc2cncn2CC2CCN(C(=O)OCc3ccccc3)CC2)c1)c1cccc2ccccc12 , please.
Found: 6.70

###

- Subject of test: Ras farnesyl transferase (Homo sapiens, UniProt P49354+P49356)
- Construct: made in house
- Test description: in vitro inhibitory activity for Ras farnesyl transferase, K-Ras substrate
- Assay type: biochemical
- Run conditions: recombinant Ras farnesyl transferase, K-Ras substrate; read-out: K-Ras IC50
Experimental endpoint: IC50 (µM)
Return type: number; implicit unit µM.

Worked examples follow.
Mol smiles: CN1CCN(C(=O)c2cn(Cc3cncn3CC3CCN(C(=O)c4ccc5ccccc5c4)CC3)cc2-c2cccc3ccccc23)CC1
Subject of test: Ras farnesyl transferase (Homo sapiens, UniProt P49354+P49356)
Experimental endpoint: IC50
Quantitative result: 0.012

Mol smiles: COCCN(C)C(=O)c1cn(Cc2cncn2CC2CCN(C(=O)/C=C/c3ccccc3)CC2)cc1-c1cccc2ccccc12
Subject of test: Ras farnesyl transferase (Homo sapiens, UniProt P49354+P49356)
Experimental endpoint: IC50
Quantitative result: 0.008

Next:
Lookup: API: value(readout= IC50, system= Ras farnesyl transferase (Homo sapiens, UniProt P49354+P49356), query= COCCN(C)C(=O)c1cn(Cc2cncn2CC2CCN(C(=O)N3CCCc4ccccc43)CC2)cc1-c1cccc2ccccc12 )
Found: 0.02
